Source: patent US20050197350A1

Molecular target: MCH receptor (Homo sapiens)
Experiment: High throughput functional screening FLIPR/FDSS6000 (intracellular Ca2+ evoked by MCH)
Assay type: cell-based
Settings: FLIPR/FDSS, antagonist activity vs 50 nM MCH; class by percent of control at 10^−7 M or IC50; read-out: class
pIC50: −log10 of the molar value.
assay metric: pIC50

Here is how some compounds turned out for pIC50.
{"columns": ["compound", "pIC50"],
 "data": [
  ["Cc1cnc(N[C@H]2CC[C@@H](NC(=O)[C@@H]3C[C@H]3c3cc(C(F)(F)F)cc(C(F)(F)F)c3)CC2)nc1N(C)C (relative stereo)", "> 7.30"],
  ["CNc1nc(N[C@H]2CC[C@@H](NC(=O)COc3cc(C(F)(F)F)nn3C)CC2)ncc1C", "< 6.70"],
  ["Cc1cnc(N[C@H]2CC[C@@H](NC(=O)Nc3c(Cl)cccc3C(F)(F)F)CC2)nc1N(C)C", "< 6.70"],
  ["Cc1cnc(N[C@H]2CC[C@@H](NC(=O)c3cccnc3S(=O)(=O)c3ccoc3C)CC2)nc1N(C)C", "< 6.70"],
  ["Cc1ccccc1NC(=O)N[C@H]1CC[C@@H](Nc2ncc(C)c(N(C)C)n2)CC1", "6.70 to 7.30"],
  ["Cc1cc(N[C@H]2CC[C@@H](C(=O)N[C@H](C)c3ccccc3F)CC2)nc2ccccc12", "< 6.70"]
]}

# pIC50 (compound: "Cc1cc(N(C)C)nc(N[C@H]2CC[C@@H](NC(=O)c3cccnc3S(=O)(=O)c3ccc(F)cc3)CC2)n1" ) is 6.70 to 7.30

###

Biological target: MCH receptor (Homo sapiens, UniProt Q99705)
Assay: High throughput functional screening FLIPR/FDSS6000 (intracellular Ca2+ evoked by MCH)
Type: cell-based
Conditions: FLIPR/FDSS, antagonist activity vs 50 nM MCH; class by percent of control at 10^−7 M or IC50; table after the classification; read-out: class
Counter-ions that a name gives are not always drawn.
assay metric: IC50

{"columns": ["compound", "measured"],
 "data": [
  ["CN(C)c1cc(N[C@H]2CC[C@@H](NC(=O)c3csc([N+](=O)[O-])c3)CC2)nc2ccccc12 [Example 3189, hydrochloride]", "< 50 nM"]
]}

Please state IC50 for every compound in the list that follows.
1. CN(C)c1cc(N[C@H]2CC[C@@H](NC(=O)c3cccnc3Oc3ccccc3)CC2)nc2ccccc12 [Example 3114, hydrochloride]
2. COC(=O)c1cccc(C(=O)N[C@H]2CC[C@@H](Nc3cc(C)c4ccccc4n3)CC2)c1 [Example 3174, hydrochloride]
3. Cc1cc(N[C@H]2CC[C@@H](NC(=O)c3cccc(C(F)(F)F)c3)CC2)nc2ccccc12 [Example 3088, hydrochloride]
4. Cc1cc(N[C@H]2CC[C@@H](NC(=O)c3ccc(F)c(F)c3)CC2)nc2ccccc12 [Example 3238]
5. CNc1ccnc(N[C@H]2CC[C@@H](NC(=O)c3ccc(F)c(Cl)c3)CC2)n1 [Example 3224, hydrochloride]
6. CNc1cc(N[C@H]2CC[C@@H](NCCc3ccc(Br)cc3OC(F)(F)F)CC2)nc2ccccc12 [Example 2, dihydrochloride]

Reply text:
["< 50 nM", "< 50 nM", "< 50 nM", "< 50 nM", "50 to 200 nM", "50 to 200 nM"]
